target: Alpha-1A adrenergic receptor (Homo sapiens); assay: Displacement of [3H]-Prazosin from human recombinant adrenergic alpha1A receptor expressed in cells after 90 mins by microbeta scintillation counting method
Sequence (P35348 whole entry): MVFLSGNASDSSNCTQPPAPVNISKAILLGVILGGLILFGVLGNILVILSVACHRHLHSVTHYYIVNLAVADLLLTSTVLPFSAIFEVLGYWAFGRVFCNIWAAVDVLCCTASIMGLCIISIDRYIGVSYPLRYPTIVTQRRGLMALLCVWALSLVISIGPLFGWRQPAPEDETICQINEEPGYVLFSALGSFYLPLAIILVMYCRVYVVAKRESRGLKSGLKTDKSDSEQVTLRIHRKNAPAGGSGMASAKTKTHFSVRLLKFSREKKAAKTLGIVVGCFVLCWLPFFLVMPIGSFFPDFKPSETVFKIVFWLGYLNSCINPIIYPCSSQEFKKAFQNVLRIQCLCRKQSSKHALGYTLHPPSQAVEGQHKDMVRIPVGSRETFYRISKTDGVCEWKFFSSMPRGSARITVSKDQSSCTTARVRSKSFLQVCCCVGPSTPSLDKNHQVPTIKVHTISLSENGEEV
Ki by entry:

[
  {
    "compound": "CC[C@H]1c2ccccc2N(c2ccccc2)C[C@@]1(C)N (racemic)",
    "Ki": "1.58 µM"
  },
  {
    "compound": "CC[C@H]1c2cc(C)ccc2OC[C@@]1(C)N (racemic)",
    "Ki": "> 10 µM"
  },
  {
    "compound": "C[C@@]12CN(c3ccccc3)c3ccccc3[C@@H]1CCN2 (racemic)",
    "Ki": "> 10 µM"
  },
  {
    "compound": "CC[C@H]1c2cc(OC)ccc2CC[C@@]1(C)N (racemic)",
    "Ki": "> 10 µM"
  },
  {
    "compound": "COc1cc(OC)c2c(c1)OC[C@@]1(C)NCC[C@@H]21 (racemic)",
    "Ki": "> 10 µM"
  }
]
